Test system: THP-1 cells
TEST: enhancing effect for differentiation-induction from human monocyte to macrophage (THP-1/Mφ system, MTT readout)
Assay type: cell-based
DETAILS: 1 μM; in comparison with enhancing action for differentiation-induction of EM 100 μM
PROPERTY NAME: activities in THP-1/Mφ system, Treated conc. 1 μM

// worked examples, activities in THP-1/Mφ system, Treated conc. 1 μM included
compound="CCCCCCNC1CC(C)O[C@@H](O[C@@H]2[C@@H](C)[C@H](O[C@H]3CC(C)(OC)[C@@H](O)C(C)O3)[C@@H](C)[C@@]3(O)O[C@H]([C@@H](C)C4O[C@@]2(C)C[C@@H]4C)[C@](C)(O)[C@@H](CC)O3)C1O (stereo partly drawn) [EM738]" target_entity="THP-1 cells" recorded_value="± (enhanced 25-50%)"
compound="C=CCNC1CC(C)OC(OC2C(C)C(OC3CC(C)(OC)C(O)C(C)O3)C(C)C(=O)OC(C(C)(O)C(O)CC)C(C)C3=C(C)CC2(C)O3)C1O (stereo not drawn) [EM724]" target_entity="THP-1 cells" recorded_value="+ (enhanced 50-100%)"
compound="CCCCCCN(CCCCCC)C1CC(C)O[C@@H](O[C@@H]2[C@@H](C)[C@H](O[C@H]3CC(C)(OC)[C@@H](O)C(C)O3)[C@@H](C)[C@@]3(O)O[C@H]([C@@H](C)C4O[C@@]2(C)C[C@@H]4C)[C@](C)(O)[C@@H](CC)O3)C1O (stereo partly drawn) [EM739]" target_entity="THP-1 cells" recorded_value="± (enhanced 25-50%)"
compound="CC[C@H]1OC(=O)[C@H](C)[C@@H](O[C@H]2C[C@@](C)(OC)[C@@H](O)[C@H](C)O2)[C@H](C)[C@@H](O[C@@H]2O[C@H](C)C[C@H](N(C)C)[C@H]2O)[C@](C)(O)C[C@@H](C)C(=NO)[C@H](C)[C@@H](O)[C@]1(C)O [EM oxim, reference compound]" target_entity="THP-1 cells" recorded_value=−
compound="CCC(O)C(C)(O)C1OC(=O)C(C)C(OC2CC(C)(OC)C(O)C(C)O2)C(C)C(OC2OC(C)CC(N(Cc3ccccc3)Cc3ccccc3)C2O)C2(C)CC(C)=C(O2)C1C (stereo not drawn) [EM733]" target_entity="THP-1 cells" recorded_value="± (enhanced 25-50%)"
compound="CCC(O)C(C)(O)C1OC(=O)C(C)C(OC2CC(C)(OC)C(O)C(C)O2)C(C)C(OC2OC(C)CC(N3CCCC3)C2O)C2(C)CC(C)=C(O2)C1C (stereo not drawn) [EM735]" target_entity="THP-1 cells" recorded_value="± (enhanced 25-50%)"
compound="CC[C@@H](O)[C@@](C)(O)[C@@H]1OC(=O)[C@H](C)[C@@H](O[C@H]2C[C@@](C)(OC)[C@@H](O)[C@H](C)O2)[C@H](C)[C@@H](O[C@@H]2O[C@H](C)C[C@H](NC(C)C)[C@H]2O)[C@@]2(C)CC(C)=C(O2)[C@@H]1C [EM736]" target_entity="THP-1 cells" recorded_value="± (enhanced 25-50%)"
compound="C#CCNC1CC(C)OC(OC2C(C)C(OC3CC(C)(OC)C(O)C(C)O3)C(C)C(=O)OC(C(C)(O)C(O)CC)C(C)C3=C(C)CC2(C)O3)C1O (stereo not drawn) [EM728]" target_entity="THP-1 cells" recorded_value="+ (enhanced 50-100%)"

In the following, a different compound is considered.
Q) Write activities in THP-1/Mφ system, Treated conc. 1 μM of CC[C@@H](O)[C@@](C)(O)[C@@H]1OC(=O)[C@H](C)[C@@H](O[C@H]2C[C@@](C)(OC)[C@@H](O)[C@H](C)O2)[C@H](C)[C@@H](O[C@@H]2O[C@H](C)C[C@H](N(C)CCOC(C)=O)[C@H]2O)[C@@]2(C)CC(C)=C(O2)[C@@H]1C [EM745] ; system used: THP-1 cells
A) −

====

Test system: THP-1 cells
TEST: enhancing effect for differentiation-induction from human monocyte to macrophage (THP-1/Mφ system, MTT readout)
Assay type: cell-based
Parameters: key: ++: enhanced 100% or more; +: enhanced 50-100%; ±: enhanced 25-50%; −: no activity; /: expressed cytoxicity; NT: not tested or under assessment
DETAILS: 3 μM; in comparison with enhancing action for differentiation-induction of EM 100 μM
PROPERTY NAME: activities in THP-1/Mφ system, Treated conc. 3 μM

compound="CCC(O)C(C)(O)C1OC(=O)C(C)C(OC2CC(C)(OC)C(O)C(C)O2)C(C)C(OC2OC(C)CC(NC(C)=O)C2O)C2(C)CC(C)=C(O2)C1C (stereo not shown)" target_entity="THP-1 cells" recorded_value=−
compound="COC1(C)CC(OC2C(C)C(=O)OC(C(C)=NO)C(C)C3=C(C)CC(C)(O3)C(OC3OC(C)CC(N(C)C)C3O)C2C)OC(C)C1O (stereo not shown)" target_entity="THP-1 cells" recorded_value="± (enhanced 25-50%)"
compound="CCCNC1CC(C)OC(OC2C(C)C(OC3CC(C)(OC)C(O)C(C)O3)C(C)C(=O)OC(C(C)(O)C(O)CC)C(C)C3=C(C)CC2(C)O3)C1O (stereo not shown)" target_entity="THP-1 cells" recorded_value="+ (enhanced 50-100%)"
compound="CCC(O)C(C)(O)C1OC(=O)C(C)C(OC2CC(C)(OC)C(O)C(C)O2)C(C)C(OC2OC(C)CC(N)C2O)C2(C)CC(C)=C(O2)C1C (stereo not shown)" target_entity="THP-1 cells" recorded_value=−
compound="CCC(O)C(C)(O)C1OC(=O)C(C)C(OC2CC(C)(OC)C(O)C(C)O2)C(C)C(OC2OC(C)CC(N(C)S(C)(=O)=O)C2O)C2(C)CC(C)=C(O2)C1C (stereo not shown)" target_entity="THP-1 cells" recorded_value="+ (enhanced 50-100%)"
compound="CC[C@H]1O[C@]2(O)O[C@H]([C@@H](C)C3O[C@@](C)(C[C@@H]3C)[C@H](O[C@@H]3OC(C)CC(NC)C3O)[C@@H](C)[C@H](O[C@H]3CC(C)(OC)[C@@H](O)C(C)O3)[C@H]2C)[C@]1(C)O (stereo partly shown)" target_entity="THP-1 cells" recorded_value="+ (enhanced 50-100%)"

Each of the following entries comes with a recorded value; kindly state activities in THP-1/Mφ system, Treated conc. 3 μM for each.
1. CC[C@H]1OC(=O)[C@H](C)[C@@H](O[C@H]2C[C@@](C)(OC)[C@@H](O)[C@H](C)O2)[C@H](C)[C@@H](O[C@@H]2O[C@H](C)C[C@H](N(C)C)[C@H]2O)[C@](C)(OC)C[C@@H](C)C(=O)[C@H](C)[C@@H](O)[C@]1(C)O [CAM, reference compound]
2. C#CCN(CC#C)C1CC(C)OC(OC2C(C)C(OC3CC(C)(OC)C(O)C(C)O3)C(C)C(=O)OC(C(C)(O)C(O)CC)C(C)C3=C(C)CC2(C)O3)C1O (stereo not shown)
3. CCCCCCNC1CC(C)O[C@@H](O[C@@H]2[C@@H](C)[C@H](O[C@H]3CC(C)(OC)[C@@H](O)C(C)O3)[C@@H](C)[C@@]3(O)O[C@H]([C@@H](C)C4O[C@@]2(C)C[C@@H]4C)[C@](C)(O)[C@@H](CC)O3)C1O (stereo partly shown)

A)
1: −; 2: ± (enhanced 25-50%); 3: + (enhanced 50-100%)

Cited source for all entries: patent US6734292B1
